Consider the following sequences; for each one, report its folding stability dG unfold.
- ASSAY_TEXT: folding stability dG unfold (combined trypsin and chymotrypsin); higher = more stable

**Q:** Entry SAGGSAGGSAGPKPEYIRIKIEMWNPDGNPREHDFTFPPGHKDQIENLADNYGFRVSIEKSAGGSAGGSAGG [r11_603_TrROS] has what folding stability dG unfold?
**A:** -0.281 kcal/mol

**Q:** Give its folding stability dG unfold value. Item: SAGMTTETTEKTAPDGKTRTTTVTYPSEEKAADTTTVVVTETPVETDGSERILTTTTVYKNGVKVATTGSAG [r14_958_JUSTAS]
**A:** < -1 kcal/mol

**Q:** Reported folding stability dG unfold, sequence SAGGSAGGSAGTSTTVTEKPDPNSNRTYTTTTVERTTADGTTTTVTTTVYPDSTTSTTTASAGGSAGGSAGG [r11_987_JUSTAS] : ____
**A:** 0.0978 kcal/mol

**Q:** Please look up its folding stability dG unfold: SARPLTIMNPDGMMYRLDPDEGEIEFQNASDGEELKIKVKPKGNGVEIDIEFNGQPHEHKIPKGDWIMIPSA [r9_239_TrROS]
**A:** 0.157 kcal/mol

**Q:** GET /values?readout=folding stability dG unfold&item= SAGGSAGGSMERLENGIERIRLLVRFPERDEVRLIEIPLDNVTPEEIIERARELGAEEIELLESAGGSAGGS [r12_792_TrMRF]
**A:** -0.545 kcal/mol

**Q:** Suppose we examine the sequence SAGGSAGGSASSSVTITNRVTNPDTGLRYITIPSKGERVTLSPDESATIPVPPDAPVSVLGSSAGGSAGGSA [r18_329_JUSTAS] ; what folding stability dG unfold value has been reported?
**A:** < -1 kcal/mol

**Q:** # input sequence: SAGMKELVLVERDAPVLGVYLDPETGRPRLEPRPVPVVVVVEVEPDSEAARELAEKLAPEDVRVEVLPASAG [r5_468_TrMRF] ; wanted: its folding stability dG unfold
**A:** -0.483 kcal/mol

###

Consider the following sequences; for each one, report its folding stability dG unfold.
- ASSAY_TEXT: folding stability dG unfold from trypsin proteolysis; higher = more stable
Please respond with the number in kcal/mol and leave the unit unwritten.

**Q:** Can you look up the measured folding stability dG unfold of SAGGSANTIMIPFDDLTPDKILEAAEESPDPIMIHNPDNGRFLTVEVEDGGIDDVTWEPFDPEDFGSAGGSA [r15_751_TrROS] for me?
**A:** 0.499

**Q:** folding stability dG unfold for SKKWKVDLDIQEDPDNGTVIGMVRVESEDGEKRPPPEEIARELAEKLREKGYKVEAEPHPGWFMITVKPPSA [r9_510_TrROS] ?
**A:** 0.371

**Q:** What value of measured folding stability dG unfold is listed for SAGGSAGGSAGGSNIILIPAKPGEEFKIKINGRPLKIQRDKDKPGYIMIEFPDGQWQPISAGGSAGGSAGGS [r4_488_TrROS] ?
**A:** -0.041

**Q:** Item SAGGSAGGSMPLRLAPVPIFLPEEEAVPVIEKLIEEGTEGGVGLIVPNVISPEEAGVHPDEPVSAGGSAGGS [r12_93_TrMRF] has what recorded folding stability dG unfold?
**A:** -0.263

**Q:** Any idea what its folding stability dG unfold is? The sequence is SAGGSAGGSAGPMIKIGSTTRPFTPPLGGRLEYAPIDVDQSEEVAKEVAEELKPKGVIVNLSAGGSAGGSAG [r3_157_JUSTAS]
**A:** -0.774

**Q:** I have this sequence here, SAGGSAGGSASSSVTITNRVTNPDTGLRYITIPSKGERVTLSPDESATIPVPPDAPVSVLGSSAGGSAGGSA [r18_329_JUSTAS] , and I need its recorded folding stability dG unfold.
**A:** -0.694

**Q:** Item under review: SAGGSAGSMSIEEVVEKAKEEGIEVEVTSLPESGLTVVTITKKLPNGEVVESIILEHPEGTTTVLSSAGGSA [r15_1051_JUSTAS] . Reported folding stability dG unfold?
**A:** 0.644

**Q:** Please report the recorded folding stability dG unfold for SAGGSAGGSATITISLGPPEYIEVYDPANGVKRKFPASVPKEEVAAEIEKEYPDTPVVFTTDASAGGSAGGS [r12_423_JUSTAS] .
**A:** 0.394

**Q:** Which folding stability dG unfold is listed for SAGGSAGGSSSPEEIKAEFKKKGYPKVEVKPVTPDTYLVTVTSPGTGKTTEYPITGSPSGKGLSAGGSAGGS [r12_170_JUSTAS] ?
**A:** -0.822

**Q:** Bench note: what folding stability dG unfold did SAGGSAGGSAGGMYVIKITMGDRPRSIMVPPDNPEEIKNQLRDLGYNIKEISVERFPPGSAGGSAGGSAGGS [r10_405_TrROS] show?
**A:** -0.749

**Q:** Using the record for SAKPIPAKDITINMHPPPGGNFNFEIELDDKEIGEHPFKSPEDMQEGMKEIAKELAALLGPDDIKIKPWSAG [r14_791_TrROS] , report its folding stability dG unfold.
**A:** 0.4

**Q:** Name the recorded folding stability dG unfold for SAGGSSMLSPSESLPLPPDEDVEVSLPSPLSAKLTYDPATGTVSVTVTDPNNPGVPLSSTTRPLTASAGGSA [r2_266_JUSTAS] .
**A:** 0.662

**Q:** Query: folding stability dG unfold; subject: SAGGSAGGSMPVEVKFTVEKDPSTDLLTVTVTRPGGEVTPITYPDPNNLEAAKAAAEALAKASSAGGSAGGS [r12_1012_JUSTAS]
**A:** 0.365

**Q:** Entry SAGGSAGGSAGGSMPKPKVIKVPVDPNVSKEEVAKEVLPKTGLNVESIEESEDVLYVLNSAGGSAGGSAGGS [r4_469_JUSTAS] has what folding stability dG unfold?
**A:** -1.11

###

- ASSAY_TEXT: folding stability dG unfold from trypsin proteolysis; higher = more stable
Assign folding stability dG unfold to each entry below.
Give the value, in units of kcal/mol, as a plain number.

**Q:** Entry under review: SAGGSAGGSAGGMPVVVINTPSEEEAEKEKAKLEEDPEYKDGPINFIYIPPGTLPENVPLSAGGSAGGSAGG [r7_976_JUSTAS] . Reported folding stability dG unfold?
**A:** 0.286

**Q:** Which value of folding stability dG unfold has been reported for SAGGSAGGSAGMTLEEKLKEAEEKHKKEGGPATITITDPTATGVSKTYTVTIENEGLKVESAGGSAGGSAGG [r11_954_JUSTAS] in the records?
**A:** 0.034

**Q:** Could you share which folding stability dG unfold value was measured for SAGGSAGGSSVLRVTVEIPETGETVELTVPPSVTEEDVRARIEAEGHAIEKIEVTESEVPPLASAGGSAGGS [r12_955_JUSTAS] ?
**A:** -0.358

**Q:** Look up folding stability dG unfold: SAGGSAGGSAGGKKTIWIPVKIEPVPDGVRIKFPDGNPIIIPPNHKVEHTPGWMRITLDSAGGSAGGSAGGS [r10_305_TrROS]
**A:** -0.293

**Q:** Which folding stability dG unfold reading was recorded for the sequence SAGMEIKIEKLEDGTYKITIKLYNKETNEEIEEIEIEVKKLKDGTYKVKIKIKNKETGKEFELEFEIKPSAG [r5_610_TrROS_Hall] ?
**A:** 4.02

**Q:** Which folding stability dG unfold reading was recorded for the sequence SAGGSAGGSAGGDSSAPKPVIVEEGSVILEVKRDPKHGVITILSRNPLGGELITYEIPRSAGGSAGGSAGGS [r10_427_JUSTAS] ?
**A:** -0.563

**Q:** Name the reported folding stability dG unfold value associated with the sequence SAGGSAGGSAGGRMYPITFPGKTIEDIEEEIEELPPNYQINIDHDENGHMKVWIMPPDDFSAGGSAGGSAGG [r7_662_TrROS]
**A:** -0.422

**Q:** Any idea what folding stability dG unfold was measured for SAGGSAGGMSTISVTVPPNVSVEEVKERLKKENPNSKYEILSVSKGPGTVKAKIAYDPLPEELLSAGGSAGG [r6_623_JUSTAS] ?
**A:** -0.782

**Q:** Any idea what its folding stability dG unfold is? The sequence is SAGGSAGGSAGAAPDETTVTTTVTPSPGTTTVTTTTYTYAPPTNTVTSTTTTTTIPAGTASAGGSAGGSAGG [r11_237_JUSTAS]
**A:** 0.659

**Q:** Find the recorded folding stability dG unfold belonging to SAGGSAGGSVKELAKKLNIKEVKVEPVDGEKVTLIKIKVKNKKTKKEYEKTILIKDKKTGKILSAGGSAGGS [r12_133_TrROS_Hall] and report it.
**A:** -0.405

**Q:** Which folding stability dG unfold is listed for SALINLKKEDVEKLVKALEKEGNYKVKIKPVKVVYKPKDGSKKPIGAVKIEVIDPDNPKSLLDKIKKAGSAG [r14_628_TrMRF] ?
**A:** -1.29

**Q:** Please report the recorded folding stability dG unfold for SAGGSAGGMTVPASSYEGVPLKVTVSRGDENVSAEEAEVTPLPDGTVVVKLPESLPEDTEVTLESAGGSAGG [r6_630_JUSTAS] .
**A:** 0.703

**Q:** Entry SAGGSAGGSMKVITVPLPDGGTTTYEVEKGKVTITYPPSVTKEIEVPDPSKAIENIETVSYKSSAGGSAGGS [r12_32_JUSTAS] has what folding stability dG unfold?
**A:** -0.76

**Q:** # get_value(readout='folding stability dG unfold', item= SAGGSAGGSMERLENGIERIRLLVRFPERDEVRLIEIPLDNVTPEEIIERARELGAEEIELLESAGGSAGGS [r12_792_TrMRF] )
**A:** 0.11

**Q:** Please report the recorded folding stability dG unfold for SAGGSAGGSAGGMKPGEPVEIKIPVPGNGKKIPIEIPVGMPPEQARKFAKEIAEELEKNHSAGGSAGGSAGG [r7_957_TrROS] .
**A:** -0.916

**Q:** For SAGGSAGGSAGGDPLERKPVKVLVLHPDKPIELEVDVGLSPEEIARPFAEKGYEVRFEGSAGGSAGGSAGGS [r10_540_TrMRF] , what is its reported folding stability dG unfold?
**A:** -1.17

**Q:** May I ask what folding stability dG unfold has been recorded for SAGGSAGGSEPDFVVVDIPFPPDVPLEALVEFARSLPSVVVNLVDEEGRPVSIALPREAVERLASAGGSAGG [r6_791_TrMRF] ?
**A:** -0.347

**Q:** Returns the measured folding stability dG unfold for the input sequence. Input: SAGGSAGGSAGGSPEVVPVDHPDRELLLVRFPDSVVLTDPSAPGASRTFPADTDVVVDASAGGSAGGSAGGS [r4_321_TrMRF]
**A:** -1.37

**Q:** I have this sequence here, SAGGSAGGSAGGSGAEEAAKAVREAFPELGVPILVEVGYIPGTKELPVRVYIPSTRLELSAGGSAGGSAGGS [r4_312_TrMRF] , and I need its recorded folding stability dG unfold.
**A:** -0.294

**Q:** Any idea what folding stability dG unfold was measured for SAGGSSMEELIKAVLEAAEAGKKAVNVKMPLPDGGEIEILDGGVIRIIPPDGVPLEEKIPVSELILSAGGSA [r2_97_JUSTAS] ?
**A:** 0.442

**Q:** Find the recorded folding stability dG unfold belonging to SAGGSAGGSGKTIIIPLPNGNVIKVEVEEGSVKITYPKPKKELIKVENPKNALKNIKTYSYKGSAGGSAGGS [r12_32_TrMRF] and report it.
**A:** -0.176

**Q:** # lookup: folding stability dG unfold of SAGGSAGGSAGGSSTITIGDSEVSVTADPKAPVATASYPASGVTFTITRPDASVTITPTPSAGGSAGGSAGG [r7_156_JUSTAS]
**A:** -0.783

**Q:** Find the recorded folding stability dG unfold belonging to SAGGSAVPPSANVGPLKEKIEVTEDPEKGTKTYTRVLKDPATGKTIVETSVIPPDGSVTLVKTVLVSAGGSA [r15_146_JUSTAS] and report it.
**A:** -0.0156

**Q:** folding stability dG unfold lookup needed for SMPKVVKTVKITKSEAKEFLEKLDIGPDKSVTILETDPNGKSSLHTIGPNKILSSEPVDTLPNTWTIEISSA [r9_849_JUSTAS] , thanks.
**A:** -0.0776

**Q:** Look at this sequence and give its reported folding stability dG unfold. SAGGSAGGSAGPPIYWRIEFENPGKKHTMTIPRDMPVDDIKEIADEIAKRFPMPISIEPVSAGGSAGGSAGG [r11_515_TrROS]
**A:** -0.335

**Q:** Give its folding stability dG unfold value. Item: SAGGSAGGSAGGSMKVEPLPHPDRPVTVETTPDSITVTDPANPPATTTFSSSSTVSVDSSAGGSAGGSAGGS [r4_321_JUSTAS]
**A:** -0.122

**Q:** Fill in the blank: the reported folding stability dG unfold of SAGGSAPNEEITIPIRIRVENPEDGKPIHEIPIPIKVPKGQTQDQILDQAKNWMEEHGMKIKEIEISAGGSA [r15_195_TrROS] is ____.
**A:** -1.32

Origin of the recorded values: the supplement of paper PMC12764529
